Measured values drawn from ChEMBL document CHEMBL3286274 for this set.

# ASSAY_NAME: in vitro
# ASSAY_CONDITIONS: human, MT4 cells infected with HIV-1 3B
# Description: Therapeutic index, ratio of CC50 for human MT4 cells infected with HIV-1 3B to EC50 for HIV-1 3B infected in human MT4 cells
Each item that follows carries a reported selectivity ratio.
Reply briefly: the number, and no unit.

Recorded selectivity ratio, per entry:
COc1ccc2c(c1)C(=O)N(O)C(=O)C2C(=O)NCc1ccc(F)cc1 (stereo unspecified) :: 3
O=C(NCc1ccc(F)cc1)C1C(=O)N(O)C(=O)c2cc(F)ccc21 (stereo unspecified) :: 162
O=C(Nc1ccccc1)c1c(O)n(O)c(=O)c2cc([N+](=O)[O-])ccc12 :: 679

## Input Using known records, supply selectivity ratio for `O=C(Nc1ccc(F)cc1)c1c(O)n(O)c(=O)c2cc([N+](=O)[O-])ccc12`
## Output 981

## Input For the compound O=C(NCc1ccc(F)cc1)C1C(=O)N(O)C(=O)c2ccc(F)cc21 (stereo unspecified) , give its reported selectivity ratio.
## Output 39

## Input Supply reported selectivity ratio belonging to this compound: `O=C(NCc1ccccc1)c1c(O)n(O)c(=O)c2cc([N+](=O)[O-])ccc12`
## Output 564

## Input Please look at this compound and report its selectivity ratio: Nc1ccc2c(c1)C(=O)N(O)C(=O)C2C(=O)NCc1ccc(F)cc1 (stereo unspecified)
## Output 10

## Input # return recorded selectivity ratio for entry O=C(NCc1ccc(F)cc1)C1C(=O)N(O)C(=O)c2c(F)cccc21 (stereo unspecified)
## Output 33

## Input Item CC(=O)Nc1ccc2c(c1)C(=O)N(O)C(=O)C2C(=O)NCc1ccc(F)cc1 (stereo unspecified) : provide selectivity ratio
## Output 5

## Input Name the recorded selectivity ratio of the compound listed here: O=C(NCc1ccc(F)cc1)C1C(=O)N(O)C(=O)c2cc(Br)ccc21 (stereo unspecified)
## Output 33

---

# ASSAY_NAME: n-octanol-PBS partition coefficient, log D of the compound at pH 7.4
# Format: physicochemical
TEST_READOUT: logD
Note: the reply should be a number with no unit written.

## Input Respond only with logD recorded for `O=C(NCc1ccc(F)cc1)c1c(O)n(O)c(=O)c2ccccc12`
## Output 0.56

---

# TARGET: Human immunodeficiency virus type 1 reverse transcriptase (Human immunodeficiency virus 1)
# ASSAY_NAME: Inhibition of recombinant HIV-1 reverse transcriptase-associated RNase H activity using [3H]-labeled RNA as substrate at 10 uM after 10 mins relative to control
TEST_READOUT: inhibition (%)
All answers are understood in %, so give the number only.

O=C(NCc1ccc(F)cc1)C1C(=O)N(O)C(=O)c2cc(F)ccc21 (stereo not given) :: 21.9

## Input Specify the recorded inhibition for O=C(NCc1ccc(F)cc1)C1C(=O)N(O)C(=O)c2cc(C(F)(F)F)ccc21 (stereo not given) , system: Human immunodeficiency virus type 1 reverse transcriptase (Human immunodeficiency virus 1).
## Output 25.5

---

# ASSAY_NAME: Cytotoxicity against human MT4 cells infected with HIV-1 3B assessed as reduction in cell viability by MTT assay
# Type: cell-based
TEST_READOUT: CC50 (µM)
Answer format: numeric, µM implied, no suffix.

O=C(NCc1ccc(F)cc1)C1C(=O)N(O)C(=O)c2ccc(F)cc21 (stereo not given) :: 123

Please examine the following record next.
## Input Supply recorded CC50 for O=C(Cc1cccs1)Nc1ccc2c(c1)C(=O)N(O)C(=O)C2C(=O)NCc1ccc(F)cc1 (stereo not given) here.
## Output 41
